assay: Cytotoxicity assay: L-6 cells; format: cell-based; conditions: rat skeletal myoblast (L6 cells); means of two independent assays
pIC50: −log10 of the molar value.
measured.parameter: pIC50

>>> value("CC(C)=CCc1c(O)ccc(C(=O)/C=C/c2ccc(O)cc2)c1O [Compound 7, isobavachalcone]")
3.98
>>> value("COc1cc2c(cc1OC)[C@@H]1C(=O)c3ccc4c(c3O[C@@H]1CO2)C=CC(C)(C)O4 [Compound 39, deguelin]")
4.71
>>> value("COc1cc2c(cc1OC)[C@]1(O)C(=O)c3ccc4c(c3O[C@@H]1CO2)C=CC(C)(C)O4 [Compound 38, tephrosin]")
4.14
